system: Thromboplastin F; assay: Hydrolysis of chromogenic substrates by thromboplastin F; format: biochemical; conditions: Thromboplastin F 5%; substrate 50 μmol/l; after 92 hours at room temperature; 405 nm
Starred links: 1 amine or outer side, 2 acyl side, 3 side chain; linkers in the order of their positions; H or OH if unused. Non-standard residues stand in square brackets, D forms with d. Residues, ends and D or L forms follow the SMILES beside them. *: point of attachment. Benzoyl(5-NH,2-NO2) = O=C(c1cc(N[*:1])ccc1[N+](=O)[O-])[*:2]; pNA = O=[N+]([O-])c1ccc(N*)cc1; Tos = Cc1ccc(S(=O)(=O)*)cc1
metric.name: Difference in extinction (hydrolysis of chromogenic substrate)

{"columns": ["compound", "result.value"],
 "data": [
  ["Cc1ccc(S(=O)(=O)NCC(=O)N2CCC[C@H]2C(=O)N[C@@H](CCCNC(=N)N)C(=O)Nc2ccc([N+](=O)[O-])c(C(=O)NC(C)C)c2)cc1 [Tos-Gly-Pro-Arg-ANBA-isopropylamide]", "0,029"]
]}

Give me Difference in extinction (hydrolysis of chromogenic substrate) for each of these compounds, listed below.
1. CC(C)NC(=O)c1cc(NC(=O)[C@H](CCCNC(=N)N)NC(=O)[C@@H]2CCCN2C(=O)[C@H](N)Cc2ccccc2)ccc1[N+](=O)[O-] [D-Phe-Pro-Arg-ANBA-isopropylamide, H-D-Phe-Pro-Arg-ANBA-isopropylamide]
2. C[C@H](NC(=O)CCC(=O)O)C(=O)N[C@@H](C)C(=O)N[C@@H](C)C(=O)Nc1ccc([N+](=O)[O-])cc1 [Suc-(Ala)3-pNA, reference compound]
3. CCOC(=O)CNC(=O)c1cc(NC(=O)[C@H](CCCNC(=N)N)NC(=O)[C@@H]2CCCN2C(=O)[C@H](N)Cc2ccccc2)ccc1[N+](=O)[O-] [D-Phe-Pro-Arg-ANBA-Glycine ethyl ester] (H-[dF]PR[Benzoyl(5-NH,2-NO2)]G-OEt)

Found:
[0, "0,310", "0,011"]

Hi there! I need Difference in extinction (hydrolysis of chromogenic substrate) for each item below, if you can.
1. CC(C)C[C@H](N)C(=O)Nc1ccc([N+](=O)[O-])cc1 [Leu-pNA, reference compound]
2. NCCCC[C@H](NC(=O)c1ccccc1)C(=O)Nc1ccc([N+](=O)[O-])cc1 [N-α-Benzoyl-L-Lysine-pNA, reference compound]
3. Cc1ccc(S(=O)(=O)NCC(=O)N2CCC[C@H]2C(=O)N[C@@H](CCCNC(=N)N)C(=O)Nc2ccc([N+](=O)[O-])cc2)cc1 [Tos-Gly-Pro-Arg-pNA, reference compound] (Tos-Gly-Pro-Arg-pNA)
4. CCOC(=O)CNC(=O)c1cc(NC(=O)[C@H](CCCNC(=N)N)NC(=O)[C@@H]2CCCN2C(=O)CNS(=O)(=O)c2ccc(C)cc2)ccc1[N+](=O)[O-] [Tos-Gly-Pro-Arg-ANBA-Glycine ethyl ester] (Tos-GPR[Benzoyl(5-NH,2-NO2)]G-OEt)
5. CCCCNC(=O)c1cc(NC(=O)[C@H](CCCNC(=N)N)NC(=O)[C@@H]2CCCN2C(=O)[C@H](N)Cc2ccccc2)ccc1[N+](=O)[O-] [D-Phe-Pro-Arg-ANBA-n-Butylamide]

Found:
0,536
0,198
0,116
0,023
0,023

Lookup: Quick check: Difference in extinction (hydrolysis of chromogenic substrate) of CC(C)(C)CNC(=O)c1cc(NC(=O)[C@H](CCCNC(=N)N)NC(=O)[C@@H]2CCCN2C(=O)[C@H](N)Cc2ccccc2)ccc1[N+](=O)[O-] [D-Phe-Pro-Arg-ANBA-neopentylamide] ?
Found: 0,003

Values were extracted from patent US4784944A.
